- TARGET_SYSTEM: APE1 (Homo sapiens)
- Construct: purchased New England Biolabs (NEB) M0282S
- METHOD_NOTES: APE1 fluorescent oligonucleotide activity assay (abasic site substrate)
- Format: biochemical
- EXPERIMENTAL_CONDITIONS: compound at 25 μM; Replicate 2
PROPERTY_MEASURED: APE1 percent activity, Replicate 2 (%)
Field: numeric (%). Do not append units.

APE1 percent activity, Replicate 2 value, target or system APE1 (Homo sapiens), for O=C(O)C1CCC(Cn2c(=S)[nH]c3ccc(F)cc3c2=O)CC1 (centres unmarked) [AD41] : 102.457

Tested on APE1 (Homo sapiens): COc1ccc2c(c1)C(=O)N(CCc1ccc(S(=O)(=O)NC(=O)NC3CCCCC3)cc1)C(=O)C2(C)C [AD12] . Observed APE1 percent activity, Replicate 2: 115.007

I looked up O=C(Nc1ccc(S(=O)(=O)NCc2ccco2)cc1)c1cc(NS(=O)(=O)c2cccs2)cc(NS(=O)(=O)c2cccs2)c1 [AD18] and its APE1 percent activity, Replicate 2 for APE1 (Homo sapiens) was 100.395

For the molecule Cc1cc(O[C@H](C)C(=O)NC[C@H]2CC[C@H](C(=O)O)CC2)c2c3c(c(=O)oc2c1)CCC3 [AD50] , the measured APE1 percent activity, Replicate 2 on APE1 (Homo sapiens) was 112.48

The molecule COc1ccc([N+](=O)[O-])cc1NC(=O)c1ccc2c(c1)N(Cc1cc(C)ccc1C)C(=O)c1ccccc1S2(=O)=O [AD34] , tested on APE1 (Homo sapiens), showed APE1 percent activity, Replicate 2 of 110.244

###

- TARGET_SYSTEM: APE1 (Homo sapiens)
- Construct: purchased New England Biolabs (NEB) M0282S
- METHOD_NOTES: APE1 fluorescent oligonucleotide activity assay (abasic site substrate)
- Format: biochemical
- EXPERIMENTAL_CONDITIONS: compound at 25 μM; Replicate 3
PROPERTY_MEASURED: APE1 percent activity, Replicate 3 (%)
Return type: number; implicit unit %.

Examples with answers:
COMPOUND	UNIT_SYMBOL	APE1 percent activity, Replicate 3
COc1ccc([N+](=O)[O-])cc1NC(=O)c1ccc2c(c1)N(Cc1cc(C)ccc1C)C(=O)c1ccccc1S2(=O)=O	%	115.389
Cc1cc(O[C@H](C)C(=O)NC[C@H]2CC[C@H](C(=O)O)CC2)c2c3c(c(=O)oc2c1)CCC3	%	116.717
C[C@H]1C[C@H](C)CN(CCCNc2ccc(C(=O)Nc3ccc(C(F)(F)F)cc3)cc2[N+](=O)[O-])C1	%	113.798
O=C(Cn1nc(-c2ccc(Br)cc2)ccc1=O)NC[C@H]1CC[C@H](C(=O)O)CC1	%	123.152
Cc1ccc(NC(=O)CSc2nc(-c3ccccc3F)nc3c2Cc2c(CO)cnc(C)c2O3)cc1	%	118.718
O=C(Nc1ccc(S(=O)(=O)NCc2ccco2)cc1)c1cc(NS(=O)(=O)c2cccs2)cc(NS(=O)(=O)c2cccs2)c1	%	113.415
COc1ccc2c(c1)C(=O)N(CCc1ccc(S(=O)(=O)NC(=O)NC3CCCCC3)cc1)C(=O)C2(C)C	%	106.871
COc1ccc(OC)c(NS(=O)(=O)c2ccc(NS(=O)(=O)c3cccc([N+](=O)[O-])c3)cc2)c1	%	127.866

The recorded APE1 percent activity, Replicate 3 for entry O=C(O)C1CCC(Cn2c(=S)[nH]c3ccc(F)cc3c2=O)CC1 (centres unmarked) equals 114.725

Measured APE1 percent activity, Replicate 3 of Nn1cnn2c(SCC(=O)Cc3ccc(-c4nc5cc(NC(=O)CSc6nnc7n(N)cnn67)ccc5o4)cc3)nnc12 : 92.4773

Short answer for Nn1cnn2c(SCC(=O)Nc3nnc(SCC(=O)Nc4ccc(S(N)(=O)=O)cc4)s3)nnc12 : APE1 percent activity, Replicate 3 was 80.6497

Source of measurements: paper PMC11078990
